The measured values listed here are drawn from patent US11001569B2.

- Tested on: JJN-3 (NIK translocated) multiple myeloma cells
- Procedure summary: Antiproliferative activity on JJN-3 multiple myeloma cells (CellTiter-Glo)
- Type: cell-based, human
- Assay setup: Homo sapiens, JJN-3, 96 h, JJN-3 (NIK translocated) cells, 96 hr treatment, averaged values, read-out: JJN-3 Proliferation inhibition (IC50 (nM))
Readout kind: IC50 (nM)
Expressed in nM, but write only the number.

Reference set, count: 5
[
  {
    "Compound": "COc1ncccc1Nc1nccc(-c2cc(C#N)c3c(c2)[C@](C)(CO)CN3)n1",
    "System name": "JJN-3 (NIK translocated) multiple myeloma cells",
    "IC50 / nM": 1580
  },
  {
    "Compound": "COc1ncccc1Nc1nccc(-c2cc(C#N)c3c(c2)C(C)(COCCNC(C)C)CN3)n1 (centres unmarked)",
    "System name": "JJN-3 (NIK translocated) multiple myeloma cells",
    "IC50 / nM": 2040
  },
  {
    "Compound": "Cc1cc(Nc2nccc(-c3cc(C#N)c4c(c3)[C@@](C)(CO)CN4)n2)c(=O)n(CCN2CC(F)(F)C2)c1 [Compound 17i]",
    "System name": "JJN-3 (NIK translocated) multiple myeloma cells",
    "IC50 / nM": 33
  },
  {
    "Compound": "COc1ncncc1Nc1nccc(-c2cc(C#N)c3c(c2)C(C)(CO)CN3)n1 (centres unmarked)",
    "System name": "JJN-3 (NIK translocated) multiple myeloma cells",
    "IC50 / nM": 468
  },
  {
    "Compound": "C[C@]1(CO)CNc2c(C#N)cc(-c3ccnc(Nc4ccc[nH]c4=O)n3)cc21",
    "System name": "JJN-3 (NIK translocated) multiple myeloma cells",
    "IC50 / nM": 776
  }
]

Turning now to a further compound:
For the compound Cc1cc(Nc2nccc(-c3cc(C#N)c4c(c3)[C@@](C)(CO)CN4)n2)c(C)nc1OC1CCN(C)CC1 , report IC50.
26

----------
- System name: recombinant human NF-kappaB-inducing Kinase (NIK/MAP3K14) (Homo sapiens)
- Sequence (Q99558 whole entry): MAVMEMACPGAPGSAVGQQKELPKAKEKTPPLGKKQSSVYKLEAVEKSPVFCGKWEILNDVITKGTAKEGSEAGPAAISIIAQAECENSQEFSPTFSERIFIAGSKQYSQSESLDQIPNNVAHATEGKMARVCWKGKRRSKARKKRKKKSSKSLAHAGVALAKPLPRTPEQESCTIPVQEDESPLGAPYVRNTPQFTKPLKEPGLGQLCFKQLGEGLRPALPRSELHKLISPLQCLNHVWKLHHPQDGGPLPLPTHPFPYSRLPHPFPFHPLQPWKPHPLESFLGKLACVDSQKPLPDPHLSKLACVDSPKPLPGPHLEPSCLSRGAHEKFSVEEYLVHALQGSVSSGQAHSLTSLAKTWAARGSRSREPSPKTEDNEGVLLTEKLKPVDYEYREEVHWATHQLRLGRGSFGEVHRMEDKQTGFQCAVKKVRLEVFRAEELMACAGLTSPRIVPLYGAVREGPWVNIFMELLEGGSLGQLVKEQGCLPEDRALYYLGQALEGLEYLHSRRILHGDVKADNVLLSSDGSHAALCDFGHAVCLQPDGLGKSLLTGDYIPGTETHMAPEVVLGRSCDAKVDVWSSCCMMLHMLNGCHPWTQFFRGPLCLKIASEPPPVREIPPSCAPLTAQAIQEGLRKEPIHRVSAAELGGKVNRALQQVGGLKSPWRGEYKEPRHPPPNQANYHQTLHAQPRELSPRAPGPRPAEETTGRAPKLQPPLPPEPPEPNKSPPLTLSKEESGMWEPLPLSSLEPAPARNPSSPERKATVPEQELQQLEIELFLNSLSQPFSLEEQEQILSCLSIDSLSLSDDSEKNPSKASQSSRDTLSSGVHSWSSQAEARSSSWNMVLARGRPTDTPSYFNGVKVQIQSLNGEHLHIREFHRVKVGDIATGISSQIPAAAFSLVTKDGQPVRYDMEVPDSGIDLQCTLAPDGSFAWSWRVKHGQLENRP
- Procedure summary: Inhibition of auto-phosphorylation of recombinant human NIK/MAP3K14 activity (AlphaScreen)
- Type: biochemical
- Assay setup: 25 microM ATP, averaged over all measurements on all batches
IC50 class ranges: lower band = under 3 nM, central band = from 3 nM up to 6 nM, upper band = 6 nM and over

Check out these entries, answers already filled in.
[
  {
    "Compound": "Cc1cnc(C#N)cc1Nc1nccc(-c2cc(C#N)c3c(c2)[C@@](C)(CO)CN3)n1",
    "Label value": "lower band"
  },
  {
    "Compound": "Cc1cnc(OCC2CN(C)CCO2)c(Nc2nccc(-c3cc(C#N)c4c(c3)[C@@](C)(CO)CN4)n2)c1 (single isomer, unassigned) [Compound 152]",
    "Label value": "upper band"
  },
  {
    "Compound": "Cc1cnc(CCNC2CC2)c(Nc2nccc(-c3cc(C#N)c4c(c3)[C@@](C)(CO)CN4)n2)c1",
    "Label value": "upper band"
  },
  {
    "Compound": "CC1(CO)CNc2c(C#N)cc(-c3nc(Nc4cccnc4OC4CCOCC4)ncc3F)cc21 (centres unmarked)",
    "Label value": "central band"
  },
  {
    "Compound": "CNC(=O)c1cc(Nc2nccc(-c3cc(C#N)c4c(c3)[C@@](C)(CO)CN4)n2)c(=O)n(CC2CC2)c1 [Compound 25i]",
    "Label value": "lower band"
  },
  {
    "Compound": "[2H]C([2H])([2H])Oc1ncccc1Nc1nccc(-c2cc(C#N)c3c(c2)C(C)(CO)CN3)n1 (centres unmarked)",
    "Label value": "lower band"
  },
  {
    "Compound": "Cc1cc(Nc2nccc(-c3cc(C#N)c4c(c3)[C@@](C)(CO)CN4)n2)c(=O)n(CCN2CCCOCC2)c1 [Compound 20i]",
    "Label value": "lower band"
  },
  {
    "Compound": "Cc1cnc(CCC(=O)N(C)C)c(Nc2nccc(-c3cc(C#N)c4c(c3)[C@@](C)(CO)CN4)n2)c1",
    "Label value": "central band"
  },
  {
    "Compound": "COc1ncccc1Nc1ncc(F)c(-c2cc(C#N)c3c(c2)C(C)(CO)CN3)n1 (centres unmarked)",
    "Label value": "lower band"
  },
  {
    "Compound": "Cc1cc(Nc2nccc(-c3cc(C#N)c4c(c3)[C@@](C)(CO)CN4)n2)c(C)nc1OC1CCN(C)CC1",
    "Label value": "central band"
  }
]

For the next question, use this compound.
Form field 'band' for COc1ncc(Cl)cc1Nc1nccc(-c2cc(C#N)c3c(c2)C(C)(COCCNC2CC2)CN3)n1 (centres unmarked)
upper band
